Biological target: T1, Her3/His10 receptor (UniProt P21860 20-643, limits assumed)
T1 construct: extracellular domain; also called HER3 ECD tagged with 10 histidine (His); not shown: tag of 10 histidines
T1 sequence (P21860 20-643 limits assumed): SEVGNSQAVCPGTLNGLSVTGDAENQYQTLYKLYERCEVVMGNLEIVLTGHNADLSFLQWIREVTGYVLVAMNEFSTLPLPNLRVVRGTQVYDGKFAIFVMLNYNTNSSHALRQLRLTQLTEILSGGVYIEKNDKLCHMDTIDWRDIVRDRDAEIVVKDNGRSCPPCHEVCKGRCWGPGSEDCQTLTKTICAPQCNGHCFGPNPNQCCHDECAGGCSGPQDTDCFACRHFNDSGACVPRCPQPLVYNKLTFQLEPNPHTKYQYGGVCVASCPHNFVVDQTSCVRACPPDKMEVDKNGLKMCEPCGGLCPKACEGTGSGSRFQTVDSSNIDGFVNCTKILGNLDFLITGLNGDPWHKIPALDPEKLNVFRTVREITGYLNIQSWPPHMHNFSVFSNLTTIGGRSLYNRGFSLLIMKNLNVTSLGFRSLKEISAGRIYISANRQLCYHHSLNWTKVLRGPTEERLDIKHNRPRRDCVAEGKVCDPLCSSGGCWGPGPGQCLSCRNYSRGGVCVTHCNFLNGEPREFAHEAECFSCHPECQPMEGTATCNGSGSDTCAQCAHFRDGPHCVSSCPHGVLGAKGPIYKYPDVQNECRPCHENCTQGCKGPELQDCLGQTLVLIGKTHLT
Assay: AlphaScreen, blocking of biotinylated NRG-1beta binding to Her3/His10 (column head prints EC50, title and text IC50)
Recorded metric: pIC50
Keep it numeric: pIC50 is minus log10 of the concentration in mol/L.

Sample records with pIC50:
| Binder | pIC50 |
| --- | --- |
| Rab1210 (antibody, V domains shown, also called Rab1210 monoclonal antibody) VH: QEQLEESGGGLVQPEGSLTLTCTASGFSFSSSYWICWVRQAPGKGLELIGYIWSGNGATYYASWAKGRFTISKTSSTTVTLQMTSVTATDTATYFCARNYDASGYGIFHLWGPGTLVTVSS VL: AVVMTQTPASVSAAVGGTVTINCQASQSIVSSYLSWYQQKTGQPPKLLIYSASKLASGVPPRFSGSGSGTQFTLTISGVQCDDAATYYCLYGVDSSNIDNAFGGGTEVVVK | 10.00 |
| Rab774 (antibody, V domains shown, also called Rab774 monoclonal antibody) VH: QSVEESGGRLVTPGTPLTLTCTVSGIDLSTYAMTWVRRAPGKGLEWLGIINRSSKTYLTDWARGRFTISKTSTTVDLKISSPTTEDTATYFCGRVMSPYSVAGGDLWGPGTLVTVSS VL: QPVLTQSPSASAALGASAKLTCILSSDLSDYTIDWYKHQQGEAPRYLMQLRSDGSYTKGTGVPDRFSGSSSGADRYLVISSVQADDEADYYCGLPYSVEYVFGGGTQLTVT | 9.28 |
| Rab189 (antibody, V domains shown, also called Rab189 monoclonal antibody) VH: QESLEESGGDLVKPEGTLTLTCKASGIGFGYYYYICWVRQAPGKGLEWIACIYTGISDSTYYATWAKGRFAISKTSSTTVTLQMTSLTAADTATYFCARSDPYYTTTYTNTYPTYWNLWGPGTLVTVSS VL: CAFELTQTPSSVEAAVGGTVTIKCQASQSINNYLAWYQQKTGQPPKLLIYRASTLESGVPSRFKGSGSGTQFTLTISDLECADAATYYCQSYYYSSSNNYYNAFGGGTEVVVK | 10.15 |

Below: the item to evaluate.
Sample Rab46 (antibody, V domains shown, also called Rab46 monoclonal antibody) VH: EEQLVESGGGLVQPEGSLTLTCTASGFSFSASYYIYWVRQAPGKGLEGIAYITGDDDKRTYYANWAKGRFTISKTSTTVTLQMTSLTAADTATYFCTRNLPDELWGPGTLVTVSS VL: QAVVTQTPSSVSAAVGGTVTISCQSSESVYSYKNLAWYQQKPGQPPRLLIWQASRLSSGVSSRFSGSGSGTQFTLTISGVQCDDAATYYCQGTYYSSAWDFVFGGGTEVMVE ; pIC50 observed: 9.29
